Cited source for all entries: paper PMC7240809

- EXPERIMENT NOTES: Biodistribution in C57BL/6J mice bearing B16–F10 melanoma
- Format: in vivo
- RECORDED CONDITIONS: C57BL/6J, mouse, blood, intravenous, total radioactivity
MEASUREMENT LABEL: tissue uptake at 1 h (%ID/g)
Answers are plain numbers, in %ID/g.

The molecule listed as CCCC[C@H](NC(=O)CN1CCC(NC(=O)CN2CCN(CC(=O)O)CCN(CC(=O)O)CCN(CC(=O)O)CC2)CC1)C(=O)N[C@H]1CC(=O)NCCCC[C@@H](C(N)=O)N(C)C(=O)[C@H](Cc2c[nH]c3ccccc23)N(C)C(=O)[C@H](CCCNC(=N)N)N(C)C(=O)[C@@H](Cc2ccccc2)NC(=O)[C@H](Cc2cnc[nH]2)N(C)C1=O [[^68Ga]Ga-CCZ01099, metal not drawn] has a reported tissue uptake at 1 h of 0.65
